# system: T1, His-Taf14FL (aa 1-244) (S. cerevisiae, UniProt P35189 1-244, labeled using a His-Tag Labeling Kit RED-tris-NTA (2nd Generation))
# T1 construct: Taf14, S. cerevisiae, UniProt P35189, aa 1-244; His-tagged form used for MST; source: E. coli Rosetta-2 (DE3) pLysS, purified (Ni-NTA, SEC)
# T1 sequence (looked up): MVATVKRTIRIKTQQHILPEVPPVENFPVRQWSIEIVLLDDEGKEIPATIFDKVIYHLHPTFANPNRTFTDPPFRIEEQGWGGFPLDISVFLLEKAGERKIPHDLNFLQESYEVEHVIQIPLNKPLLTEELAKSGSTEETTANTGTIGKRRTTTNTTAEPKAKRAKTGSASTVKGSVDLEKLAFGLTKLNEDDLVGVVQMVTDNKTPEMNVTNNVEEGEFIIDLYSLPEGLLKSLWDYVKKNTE
# measurement-description: MST; His-tagged Taf14 labeled with RED-tris-NTA, kept at 10 nM; unlabeled peptide added stepwise; 20 mM Tris-HCl pH 7.5, 150 mM NaCl, 2.5 mM DTT or 0-0.2 mM TCEP; apparent Kd, 1:1 stoichiometry
# condition-label: both partners purified
pKd: −log10 of the molar value.
measurement-kind: pKd

>  <binder>
Ac-EPKLLLKINLKK-NH2 (also called Yng1 peptide; source: synthetic peptide (Synpeptide)) [Yng1EBM peptide (aa 113-124 of Yng1), Ac-EPKLLLKINLKK-NH2]

>  <value>
5.92

$$$$
